test system: Total ATXN3 (tATXN3) protein; assay: Endogenous Total ATXN3 (tATXN3) Protein Assay (MSD immunoassay of cell lysates); assay type: cell-based; conditions: cells incubated with compound 48 h; 7-point concentration curve; MSD detection in cell lysate
pIC50: −log10 of the molar value.
Entries and their measured pIC50 follow.

- COC[C@H](N)Cc1sc2c(NCc3ccco3)cc(Cl)nc2c1C [Cpd 45]: ≥ 6.30
- N[C@@H](CO)Cc1sc2c(NCc3ccco3)cc(Cl)nc2c1Br [Cpd 41]: ≥ 6.30

Query :: Which pIC50 value is on record for Cc1c(C[C@@H](N)CF)sc2c(NCc3cccs3)cc(Cl)nc12 [Cpd 91] ?
Result :: 5.82 to 6.00

---

Entries and their measured IC50 follow.
tested on: Total ATXN3 (tATXN3) protein; assay: Endogenous Total ATXN3 (tATXN3) Protein Assay (MSD immunoassay of cell lysates); type: cell-based; details: cells incubated with compound 48 h; 7-point concentration curve; MSD detection in cell lysate

# annotated cases, reported IC50 shown
• CC[C@H](N)Cc1sc2c(NCc3cccs3)cc(Cl)nc2c1Cl = ≤ 500 nM
• Cc1c(NC[C@@H](C)N)sc2c(NCc3cccs3)cc(Cl)nc12 = > 2000 nM
• Cc1c(C[C@@H](N)CC(C)C)sc2c(NCc3cccs3)cc(Cl)nc12 = ≤ 500 nM
• Cc1c(C[C@@H](N)CS(C)(=O)=O)sc2c(NCc3ccco3)cc(Cl)nc12 = ≤ 500 nM
• C[C@H](N)C(F)c1sc2c(NCc3nccs3)cc(Cl)nc2c1Br (stereo partly drawn) = 500 to 1000 nM

Query :: Which IC50 value is on record for Cc1c(C[C@@H](N)CO)sc2c(NCc3ccco3)cc(Cl)nc12 ?
Result :: ≤ 500 nM

Query :: Which IC50 value is on record for Cc1c([C@@H](C)[C@H](C)N)sc2c(NCc3ccco3)cc(Cl)nc12 ?
Result :: 1000 to 1500 nM

Query :: Which IC50 value is on record for Cc1c(C[C@@H](N)CCF)sc2c(NCc3ccco3)cc(Cl)nc12 ?
Result :: ≤ 500 nM

Query :: Which IC50 value is on record for CSC[C@H](N)Cc1sc2c(NCc3ccco3)cc(Cl)nc2c1Br ?
Result :: ≤ 500 nM

---

system: Total ATXN3 (tATXN3) protein; assay: Endogenous Total ATXN3 (tATXN3) Protein Assay (MSD immunoassay of cell lysates); format: cell-based; settings: cells incubated with compound 48 h; 7-point concentration curve; MSD detection in cell lysate
outcome.measure: IC50

• CS(=O)(=O)C[C@H](N)Cc1sc2c(NCc3ccco3)cc(Cl)nc2c1Cl = ≤ 0.5 µM
• C[C@H](N)C(F)(F)c1sc2c(NCc3cccs3)cc(Cl)nc2c1Cl = 0.5 to 1 µM
• CN[C@@H](C)Cc1sc2c(NCc3ccco3)cc(Cl)nc2c1C = ≤ 0.5 µM
• C#C[C@H](N)Cc1sc2c(NCc3ccco3)cc(Cl)nc2c1C = ≤ 0.5 µM

In the following, a different molecule is considered.
Query :: Which IC50 value is on record for C#C[C@H](N)Cc1sc2c(NCc3ccco3)cc(Cl)nc2c1Cl ?
Result :: ≤ 0.5 µM

---

tested on: Total ATXN3 (tATXN3) protein; assay: Endogenous Total ATXN3 (tATXN3) Protein Assay (MSD immunoassay of cell lysates); type: cell-based; settings: cells incubated with compound 48 h; 7-point concentration curve; MSD detection in cell lysate
Entries and their measured IC50 follow.

# annotated cases, reported IC50 shown
• C[C@H](F)[C@H](N)Cc1sc2c(NCc3nccs3)cc(Cl)nc2c1Br = ≤ 500 nM
• Cc1c(C[C@@H](N)C(=O)N(C)C)sc2c(NCc3ccco3)cc(Cl)nc12 = ≤ 500 nM

Query :: Which IC50 value is on record for Cc1c(C[C@@H](N)CF)sc2c(NCc3ccco3)cc(Cl)nc12 ?
Result :: ≤ 500 nM

Query :: Which IC50 value is on record for Cc1c(C[C@@H](N)C(=O)N(C)c2ccccc2)sc2c(NCc3ccco3)cc(Cl)nc12 ?
Result :: 1000 to 1500 nM

Query :: Which IC50 value is on record for N[C@@H](COC(F)(F)F)Cc1sc2c(NCc3nccs3)cc(Cl)nc2c1Br ?
Result :: 500 to 1000 nM

Query :: Which IC50 value is on record for C[C@H](N)Cc1sc2c(NCc3ccco3)cc(Cl)nc2c1C#N ?
Result :: ≤ 500 nM

Query :: Which IC50 value is on record for C[C@H](N)Cc1sc2c(NCc3ccco3)cc(Cl)nc2c1C1CC1 ?
Result :: ≤ 500 nM
